molecules and their reported IC90
System: Becap-37 (human breast cancer) cells
Method: MTT cell growth inhibition, solid tumor cells
Type: cell-based
Condition set: Homo sapiens; Becap-37, 72 h, MTT; read-out: IC90
Endpoint name: IC90 (µg/mL)

>>> df
                                   molecule                       subject_of_test  unit_abbrev  result_number
0  COc1ccc2cc1Oc1ccc(cc1)C[C@H]1c3cc(c(OC)cc3CCN1C)Oc1c(OC3CCCC3)c(OC)cc3c1[C@H](C2)N(C)CC3  Becap-37 (human breast cancer) cells        µg/mL            6.1
1  COc1ccc2cc1Oc1ccc(cc1)C[C@H]1c3cc(c(OC)cc3CCN1C)Oc1c(OC(=O)C3CC3)c(OC)cc3c1[C@H](C2)N(C)CC3  Becap-37 (human breast cancer) cells        µg/mL           7.22
2  COc1ccc2cc1Oc1ccc(cc1)C[C@H]1c3cc(c(OC)cc3CCN1C)Oc1c(OCC(O)CN3CCSCC3)c(OC)cc3c1[C@H](C2)N(C)CC3 (stereo partly drawn)  Becap-37 (human breast cancer) cells        µg/mL           6.16
